subjectOfTest: T1, human ferroportin (SLC40A1) fused in frame with GFP, stably expressed in HEK293 cells (human, UniProt Q9NP59 1-571)
T1 sequence (looked up): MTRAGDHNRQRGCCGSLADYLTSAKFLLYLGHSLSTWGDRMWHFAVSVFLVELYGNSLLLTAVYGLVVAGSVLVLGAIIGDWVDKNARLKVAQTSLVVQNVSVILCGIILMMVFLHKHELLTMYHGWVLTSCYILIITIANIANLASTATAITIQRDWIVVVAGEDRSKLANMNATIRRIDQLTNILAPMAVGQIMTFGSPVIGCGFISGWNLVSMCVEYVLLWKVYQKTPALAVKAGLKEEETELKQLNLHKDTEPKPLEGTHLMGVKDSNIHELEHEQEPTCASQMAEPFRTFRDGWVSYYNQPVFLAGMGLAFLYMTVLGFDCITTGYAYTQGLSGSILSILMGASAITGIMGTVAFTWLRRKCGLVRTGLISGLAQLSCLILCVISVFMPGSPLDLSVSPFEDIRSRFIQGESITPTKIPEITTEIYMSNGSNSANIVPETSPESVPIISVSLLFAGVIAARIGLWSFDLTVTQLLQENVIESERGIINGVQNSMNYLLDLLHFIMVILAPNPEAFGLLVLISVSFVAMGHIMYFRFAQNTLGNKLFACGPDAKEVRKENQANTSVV
method: cell-based or functional assay
Starred links: 1 amine or outer side, 2 acyl side, 3 side chain; linkers in the order of their positions; H or OH if unused. Positions of bridges follow the written chain, without caps; N, C: chain ends. Non-standard residues stand in square brackets, D forms with d. Groups on a side chain read outwards from the residue. *: point of attachment. Glu(OMe) = COC(=O)CC[C@H](N[*:1])C(=O)[*:2]; C18 diacid = O=C(O)CCCCCCCCCCCCCCCCC(=O)*; Dip = N[C@H](C(=O)O)C(c1ccccc1)c1ccccc1; γGlu = O=C(O)[C@H](CCC(=O)[*:2])N[*:1]; Palmitoyl = CCCCCCCCCCCCCCCC(=O)*; β3hF = N[C@H](CC(=O)O)Cc1ccccc1; Isovaleryl = CC(C)CC(=O)*; Ac6c = NC1(C(=O)O)CCCCC1; Dap = NC[C@H](N)C(=O)O; AEEA = NCCOCCOCC(=O)O; Ahx = NCCCCCC(=O)O
measureName: IC50: FPN internalisation (nM)

{"binder": "Isovaleryl-ETH[Dip]SCIK([AEEA-AEEA-γGlu-C18 diacid])[β3hF][dK]C-NH2 (not fully specified (bridges); cysteine pairing not given here) [Seq. No. 558]", "measureName": "IC50: FPN internalisation", "outputUnit": "nM", "testValue": 39.2}
{"binder": "XETHXPCIXXXXC ([Isovaleric Acid]-E-T-H-[Dpa]-P-C-I-[(D)Lys]-[bhPhe]-[Lys(Ahx_DMG_N_2ae_Palm)]-[(D)Lys]-C-NH2) [Seq. No. 527]", "measureName": "IC50: FPN internalisation", "outputUnit": "nM", "testValue": 31}
{"binder": "XXTHXPCIXXXC ([Isovaleric Acid]-[Glu(OMe)]-T-H-[Dpa]-P-C-I-[Lys(PEG12_DMG_N_2ae_Palm)]-[bhPhe]-[(D)Lys]-C-NH2) [Seq. No. 530]", "measureName": "IC50: FPN internalisation", "outputUnit": "nM", "testValue": 37.4}
{"binder": "Isovaleryl-ETHAPCI[dK][β3hF]K([Ahx-Palmitoyl])[dK]C-NH2 (not fully specified (bridges); cysteine pairing not given here) [Seq. No. 575]", "measureName": "IC50: FPN internalisation", "outputUnit": "nM", "testValue": 83}
{"binder": "XXTHXPCIXXXC ([Isovaleric Acid]-[Glu(OMe)]-T-H-[Dpa]-P-C-I-[Lys(1PEG2_1PEG2_Dap_C18_Diacid)]-[Hph]-[(D)Lys]-C-NH2) [Seq. No. 508]", "measureName": "IC50: FPN internalisation", "outputUnit": "nM", "testValue": 24.2}

[a] XXTWXPCIXXXC ([sovaleric Acid]-[Glu(OMe)]-T-W-[Dpa]-P-C-I-[Lys(1PEG2_1PEG2_Ahx_C18_Diacid)]-[bhPhe]-[(D)Lys]-C-NH2) [Seq. No. 498]
[b] XXTHXPCIXXXC ([Isovaleric Acid]-[Glu(OMe)]-T-H-[Dpa]-P-C-I-[Lys(1PEG2_1PEG2_Dap_C18_Diacid)]-[bhPhe(4-Me)]-[(D)Lys]-C-NH2) [Seq. No. 505]
Inquiry: // select label with min value of measured IC50: FPN internalisation from [ a , b ] Lab note: record the label of whichever item you select.
Reply text: b

[1] XXTHXPXIXXXC ([Isovaleric Acid]-[Glu(OMe)]-T-H-[Dpa]-P-[(D)Cys]-I-[Lys(PEG2_1PEG2_DMG_N_2ae_C18_Diacid)]-[bhPhe]-[(D)Lys]-C-NH2) [Seq. No. 495]
[2] XXTHXPCIXXXC ([Isovaleric Acid]-[Glu(OMe)]-T-H-[Dpa]-P-C-I-[Lys(Ahx_DMG_N_2ae_Palm)]-[bhPhe]-[(D)Lys]-C-NH2) [Seq. No. 532]
Inquiry: // select label with min value of measured IC50: FPN internalisation from [ 1 , 2 ] Lab note: record the label of whichever item you select.
Reply text: 2
(2: 7.14 nM, 1: 14.9 nM)

[a] Isovaleryl-[Glu(OMe)]TH[Dip]PC[Ac6c]K([AEEA-AEEA-Dap-C18 diacid])[β3hF][dK]C-NH2 (disulfide 6-11 (inferred)) [Seq. No. 512]
[b] {Cyclohexanoic Acid}-ETH[Dip]PCK([AEEA-AEEA-γGlu-C18 diacid])[β3hF][dK]C-NH2 (not fully specified (bridges); cysteine pairing not given here) [Seq. No. 562]
Inquiry: // select label with min value of measured IC50: FPN internalisation from [ a , b ] Lab note: record the label of whichever item you select.
Reply text: b
(b: 18.4 nM, a: 37.4 nM)
